Catalogue of normalised percent inhibition values
Tested on: Renilla luciferase (RLuc)
Test: normalised percent inhibition of luminescence (vs positive and negative controls); higher = stronger inhibition
Settings: metal salt concentration 0.02 mM; screening conditions buffer

Recorded normalised percent inhibition, per entry:
                                   compound                    readoutkind  result
0  O=[N+]([O-])[O-].O=[N+]([O-])[O-].[Pb+2] [lead(II) nitrate]  normalised percent inhibition  -5.61%
1  O=[N+]([O-])[O-].O=[N+]([O-])[O-].[Cd+2] [cadmium nitrate]  normalised percent inhibition  -3.71%
2  CC#N.CC#N.CC#N.CC#N.F[B-](F)(F)F.[Cu+] [tetrakis(acetonitrile)copper(I) tetrafluoroborate]  normalised percent inhibition   2.75%
3          [Cl][Fe][Cl] [iron(II) chloride]  normalised percent inhibition   16.1%
4  O=[N+]([O-])[O-].O=[N+]([O-])[O-].O=[N+]([O-])[O-].[Ga+3] [gallium(III) nitrate]  normalised percent inhibition  -6.17%
5  [Cl][Pt-2]([Cl])([Cl])[Cl].[K+].[K+] [potassium tetrachloroplatinate(II)]  normalised percent inhibition   2.57%
6  O=S(=O)([O-])[O-].[Fe+2] [iron(II) sulfate]  normalised percent inhibition   17.5%
7   [Cl][Fe]([Cl])[Cl] [iron(III) chloride]  normalised percent inhibition  0.263%
8           [Cl][Sn][Cl] [tin(II) chloride]  normalised percent inhibition  -6.49%
9   O=[N+]([O-])[O-].[Ag+] [silver nitrate]  normalised percent inhibition   14.2%

compound O=[N+]([O-])[O-].O=[N+]([O-])[O-].[Zn+2] [zinc nitrate] , normalised percent inhibition observed: -5.53%

compound O=[N+]([O-])[O-].O=[N+]([O-])[O-].[Cu+2] [copper(II) nitrate] , normalised percent inhibition observed: -23.7%
